Reported IC50 (µg/mL), pseudovirus neutralization is given for each of the following binders.
# tested-system: HIV-1 Env of isolate MGRM-C-013 (subtype C) (HIV-1)
# assay-procedure: cell-based or functional assay

Note IC50 (µg/mL), pseudovirus neutralization for the binder shown: PGT-125 (antibody, V domains shown) VH: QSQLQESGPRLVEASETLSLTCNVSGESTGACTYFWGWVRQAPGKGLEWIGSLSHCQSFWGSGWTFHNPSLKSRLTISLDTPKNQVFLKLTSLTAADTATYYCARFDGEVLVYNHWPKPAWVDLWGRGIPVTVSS VL: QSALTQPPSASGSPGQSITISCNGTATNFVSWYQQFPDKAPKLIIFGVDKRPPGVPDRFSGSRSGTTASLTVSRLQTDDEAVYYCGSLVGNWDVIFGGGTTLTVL
> 50 µg/mL

Note IC50 (µg/mL), pseudovirus neutralization for the binder shown: PGT-123 (antibody, V domains shown) VH: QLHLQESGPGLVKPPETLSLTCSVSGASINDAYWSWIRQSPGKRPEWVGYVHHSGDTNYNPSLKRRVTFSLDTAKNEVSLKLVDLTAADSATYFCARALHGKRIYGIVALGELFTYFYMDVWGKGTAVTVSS VL: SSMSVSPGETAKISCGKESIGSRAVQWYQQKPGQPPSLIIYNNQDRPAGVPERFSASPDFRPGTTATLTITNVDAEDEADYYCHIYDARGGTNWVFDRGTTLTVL
14.9 µg/mL

Note IC50 (µg/mL), pseudovirus neutralization for the binder shown: PGT-127 (antibody, V domains shown) VH: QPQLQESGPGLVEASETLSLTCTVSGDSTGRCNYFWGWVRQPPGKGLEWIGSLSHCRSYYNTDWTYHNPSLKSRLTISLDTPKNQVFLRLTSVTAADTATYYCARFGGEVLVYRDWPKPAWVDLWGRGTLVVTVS VL: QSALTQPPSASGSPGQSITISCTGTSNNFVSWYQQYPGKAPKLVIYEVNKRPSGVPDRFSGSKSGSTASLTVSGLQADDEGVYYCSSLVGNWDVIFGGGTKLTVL
> 50 µg/mL

Note IC50 (µg/mL), pseudovirus neutralization for the binder shown: PGT-126 (antibody, V domains shown) VH: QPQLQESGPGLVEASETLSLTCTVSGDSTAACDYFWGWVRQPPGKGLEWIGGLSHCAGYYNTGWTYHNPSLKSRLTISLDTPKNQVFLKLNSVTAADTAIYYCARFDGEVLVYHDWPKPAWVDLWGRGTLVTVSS VL: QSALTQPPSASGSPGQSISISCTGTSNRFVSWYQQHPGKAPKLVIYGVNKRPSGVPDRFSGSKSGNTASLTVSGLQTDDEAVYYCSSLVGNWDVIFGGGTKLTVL
> 50 µg/mL
